STUDY SYSTEM: T1, mouse NKp46 (mouse, UniProt Q8C567 17-325)
T1 construct: whole, on cells
T1 sequence (looked up): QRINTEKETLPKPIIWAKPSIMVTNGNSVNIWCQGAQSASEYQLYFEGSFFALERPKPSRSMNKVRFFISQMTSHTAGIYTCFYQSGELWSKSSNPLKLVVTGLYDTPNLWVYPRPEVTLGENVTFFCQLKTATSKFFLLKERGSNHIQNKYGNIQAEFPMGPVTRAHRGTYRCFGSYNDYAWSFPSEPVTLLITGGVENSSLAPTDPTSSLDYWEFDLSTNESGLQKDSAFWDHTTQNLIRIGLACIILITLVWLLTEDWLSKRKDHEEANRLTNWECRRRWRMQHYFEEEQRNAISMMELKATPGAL
ASSAY DETAILS: flow cytometry, HEK293F cells transfected with mouse NKp46
Documented pKd across a set of binders
Note on pKd: it is the negative log10 of concentration, concentration in mol/L.

{"BINDER": "NKp46-5D7-Fc* (Fc fusion, VHH-Fc fusion with an IgG1 Fc lacking a hinge (Fc*); also called 5D7 VHH) QVTLRESGASLSLTCAASGRTFASAAMGWFRQAPGEEREFVAAISRSDDTYYADSVKGRFTISRDNAKNTVYLQMNSLKSEDTAVYYCAAVVPTYGNNIYVHSAAYNYWGQGTQVTVKPGGGGGPSVFLFPPKPKDTLMISRTPEVTCVVVDVSHEDPEVKFNWYVDGVEVHNAKTKPREEQYNSTYRVVSVLTVLHQDWLNGKEYKCKVSNKALPAPIEKTISKAKGQPREPQVYTLPPSRDELTKNQVSLTCLVKGFYPSDIAVEWESNGQPENNYKTTPPVLDSDGSFFLYSKLTVDKSRWQQGNVFSCSVMHEALHNHYTQKSLSLSPG", "MEASURED": 9.31}

Task: I am curious: what pKd value has been reported for NKp46-hz5D7v10-Fc* (Fc fusion, VHH-Fc fusion with an IgG1 Fc lacking a hinge (Fc*)) EVQLVESGGSLRLSCAASGRTFASAAMGWFRQAPGKEREFVAAISRSDDTYYADSVKGRFTISRDNAKNTVYLQMSSLRAEDTAVYYCAAVVPTYGNNIYVHSAAYNYWGQGTLVTVKPGGGGPSVFLFPPKPKDTLMISRTPEVTCVVVDVSHEDPEVKFNWYVDGVEVHNAKTKPREEQYNSTYRVVSVLTVLHQDWLNGKEYKCKVSNKALPAPIEKTISKAKGQPREPQVYTLPPSRDELTKNQVSLTCLVKGFYPSDIAVEWESNGQPENNYKTTPPVLDSDGSFFLYSKLTVDKSRWQQGNVFSCSVMHEALHNHYTQKSLSLSPG ?
Result: 9.09

Task: Repeat with NKp46-hz5D7v11-Fc* (Fc fusion, VHH-Fc fusion with an IgG1 Fc lacking a hinge (Fc*)) EVQLVESGGGEVQPGGSLRLSCAASGRTFASAAMGWFRQAPGKEREFVAAISRSDDTYYADSVKGRFTISRDNAKNTVYLQMSSLRAEDTAVYYCAAVVPTYGSNIYVYSAAYNYWGQGTLVTVKPGGGGPSVFLFPPKPKDTLMISRTPEVTCVVVDVSHEDPEVKFNWYVDGVEVHNAKTKPREEQYNSTYRVVSVLTVLHQDWLNGKEYKCKVSNKALPAPIEKTISKAKGQPREPQVYTLPPSRDELTKNQVSLTCLVKGFYPSDIAVEWESNGQPENNYKTTPPVLDSDGSFFLYSKLTVDKSRWQQGNVFSCSVMHEALHNHYTQKSLSLSPG
Result: 8.77
